Target: human HIF-PHD2 (Homo sapiens, UniProt Q9GZT9)
Sequence (Q9GZT9 2-426 limits assumed): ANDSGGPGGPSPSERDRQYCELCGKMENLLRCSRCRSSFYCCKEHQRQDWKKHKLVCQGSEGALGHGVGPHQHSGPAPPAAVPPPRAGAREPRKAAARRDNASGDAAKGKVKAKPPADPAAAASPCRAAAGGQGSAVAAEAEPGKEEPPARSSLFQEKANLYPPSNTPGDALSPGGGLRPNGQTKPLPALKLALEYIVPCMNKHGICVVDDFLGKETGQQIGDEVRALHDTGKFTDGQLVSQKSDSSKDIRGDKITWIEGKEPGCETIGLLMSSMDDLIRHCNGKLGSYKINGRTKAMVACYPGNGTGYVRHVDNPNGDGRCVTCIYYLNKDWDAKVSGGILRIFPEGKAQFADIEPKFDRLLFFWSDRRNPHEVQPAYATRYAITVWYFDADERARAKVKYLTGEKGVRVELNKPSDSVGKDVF
# note: boundary value 50 nM maps to F; IC50 below it maps to T

These recorded examples may help you get a feel for the data.
compound	label_value
O=C(O)c1cnn(-c2nc(O)c3c(cnn3CC3(c4ccccc4)CCCC3)n2)c1 [Example 123]	F
Cc1cc(F)cc(C(C)n2ncc3nc(-n4cc(C(=O)O)cn4)nc(O)c32)c1 (centres unmarked) [Example 299]	F
Cc1cc(C(C2CC2)n2ncc3nc(-n4cc(C(=O)O)cn4)nc(O)c32)ccc1F (centres unmarked) [Example 376]	F
CCC(c1ccc(F)c(Cl)c1)n1ncc2nc(-n3cc(C(=O)O)cn3)nc(O)c21 (centres unmarked) [Example 337]	T
CCC(c1ccc(Cl)cc1)n1ncc2nc(-n3cc(C(=O)O)cn3)nc(O)c21 (centres unmarked) [Example 322]	T

Is IC50 strictly under 50 nM for the entry C[C@@H](c1ccc2ccccc2c1)n1ncc2nc(-n3cc(C(=O)O)cn3)nc(O)c21 [Example 31] ? T

Is IC50 strictly under 50 nM for the entry CC(C)C(c1ccc(C(F)(F)F)cc1)n1ncc2nc(-n3cc(C(=O)O)cn3)nc(O)c21 (centres unmarked) [Example 356] ? F

Is IC50 strictly under 50 nM for the entry O=C(O)c1cnn(-c2nc(O)c3c(cnn3CCCn3ccc4ccccc43)n2)c1 [Example 167] ? T
